# Experimental target: PIM-1 (Homo sapiens)
# Construct: full-length constructs were used for small, single domain kinases; T7 phage fusion (most assays) or DNA tag for qPCR (HEK-293-made kinases); made in house
# Run description: Kinase competition binding assay, PIM-1
# Condition summary: Table 1 kinase panel
Measured IC50, listed per entry for reference.

Reference set, count: 3
COc1ccc(-c2cc(=O)c3c(O)c(C/C=C(\C)CCC=C(C)C)c(O)cc3o2)cc1OC [FBL-03D] : > 30000 nM
COc1cc(-c2cc(=O)c3c(O)c(C/C=C(\C)CCC=C(C)C)c(O)cc3o2)ccc1O [FBL-03A] : > 20000 nM
COc1cc(-c2cc(=O)c3c(O)cc(O)c(C/C=C(\C)CCC=C(C)C)c3o2)ccc1O [FBL-03C] : > 1000 nM

Okay, now this molecule:
Could you share which IC50 value was measured for COc1cc(-c2cc(=O)c3c(O)cc(O)c(CC=C(C)C)c3o2)ccc1O [FBL-03G] ? 78 nM

Ref: patent US20180353462A1
